This collection of values is drawn from paper PMC10397247.

Biological target: T1, 4H446-AA
T1 chain: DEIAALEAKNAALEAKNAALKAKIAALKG
Experiment: two-hybrid library CCmax;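 note: natural log of median RNA to DNA barcode read ratio; higher means stronger binding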
Settings: mean of both orientations
measure name: interaction score

# binder, interaction score
rows = [
    ("DEIAALEAKIAALKAKNAALKAENAALKG [4H380-AA]", -1.43),
    ("DEIAALEAKIAALKAEIAALEAENAALKG [4H324-AA]", -1.06),
    ("DKNAALKAEIAALEAEIAALKAENAALEG [4H3595-AA]", -1.59),
    ("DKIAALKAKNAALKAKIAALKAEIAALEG [4H3049-AA]", -0.416),
]

A: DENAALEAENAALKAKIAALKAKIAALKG [4H1262-AA]
B: DKNAALEAKIAALKAENAALEAKIAALKG [4H3414-AA]
C: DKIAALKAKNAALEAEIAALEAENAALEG [4H2947-AA]
Arrange items by their interaction score values in increasing order. # answer = labels listed in requested order
A, B, C
(A: -1.67, B: -0.818, C: -0.0537)
